These data points were gathered from patent US11826351B2.

biological target: Recombinant EGFR (Homo sapiens, UniProt P00533); assay: EGFR binding affinity (LanthaScreen TR-FRET); details: Kinase Tracer 199, 5 h incubation
Sequence (P00533 25-1210): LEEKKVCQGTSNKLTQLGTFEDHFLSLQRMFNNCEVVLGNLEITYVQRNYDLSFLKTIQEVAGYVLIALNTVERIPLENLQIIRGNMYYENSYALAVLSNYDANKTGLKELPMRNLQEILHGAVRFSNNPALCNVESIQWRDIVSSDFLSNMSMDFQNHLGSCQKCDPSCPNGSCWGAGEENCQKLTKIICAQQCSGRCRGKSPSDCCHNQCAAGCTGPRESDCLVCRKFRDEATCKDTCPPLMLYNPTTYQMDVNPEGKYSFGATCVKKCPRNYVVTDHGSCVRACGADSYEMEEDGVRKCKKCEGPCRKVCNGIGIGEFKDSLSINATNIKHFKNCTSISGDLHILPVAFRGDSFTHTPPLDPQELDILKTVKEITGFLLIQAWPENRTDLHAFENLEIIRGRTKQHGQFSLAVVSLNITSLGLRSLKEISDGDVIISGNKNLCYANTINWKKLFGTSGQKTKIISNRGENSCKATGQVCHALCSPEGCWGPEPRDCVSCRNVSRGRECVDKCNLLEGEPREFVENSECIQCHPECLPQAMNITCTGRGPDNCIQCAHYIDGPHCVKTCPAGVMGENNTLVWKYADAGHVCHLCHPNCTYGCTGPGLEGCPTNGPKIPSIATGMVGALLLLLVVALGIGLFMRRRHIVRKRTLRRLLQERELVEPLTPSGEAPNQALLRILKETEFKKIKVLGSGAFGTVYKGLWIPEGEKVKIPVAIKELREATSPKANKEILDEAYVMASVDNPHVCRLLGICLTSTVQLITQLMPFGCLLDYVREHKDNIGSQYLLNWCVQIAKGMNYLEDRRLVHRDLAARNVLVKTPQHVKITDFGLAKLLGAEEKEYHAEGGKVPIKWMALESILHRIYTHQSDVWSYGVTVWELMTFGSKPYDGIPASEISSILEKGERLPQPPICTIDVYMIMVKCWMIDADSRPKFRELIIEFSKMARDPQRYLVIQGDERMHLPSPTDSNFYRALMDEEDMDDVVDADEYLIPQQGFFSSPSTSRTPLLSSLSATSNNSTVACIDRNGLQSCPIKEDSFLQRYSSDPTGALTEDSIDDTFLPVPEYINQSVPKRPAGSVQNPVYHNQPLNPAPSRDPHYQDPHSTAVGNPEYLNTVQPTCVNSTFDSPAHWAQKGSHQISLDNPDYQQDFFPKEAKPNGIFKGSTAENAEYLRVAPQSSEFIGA
# IC50 per entry
quantityMeasured: IC50

1) COc1ccccc1C(=O)NCc1ccc(-c2nn(C(C(C)C)C(F)(F)F)c(N)c2C(N)=O)cc1 (stereo not shown) [Example 171] = 1 to 10 µM
2) COc1ccccc1C(=O)NCc1ccc(-c2nn(C3CCOCC3)c(N)c2C(N)=O)c(F)c1F [Example 141] = > 10 µM
3) COc1ccccc1C(=O)NCc1ccc(-c2nn([C@H]3CC[C@H](F)C3)c(N)c2C(N)=O)cc1 (relative stereo) [Example 41] = 0.1 to 1 µM
4) COc1ccccc1C(=O)NCc1ccc(-c2nn(C3CCCC(=O)C3)c(N)c2C(N)=O)cc1 (stereo not shown) [Example 12] = > 10 µM
5) COc1ccc(F)cc1C(=O)NCc1ccc(-c2nn(C(c3ccccc3)C(F)(F)F)c(N)c2C(N)=O)cc1 (stereo not shown) [Example 178] = 1 to 10 µM
6) COc1ccccc1C(=O)NCc1ccc(-c2nn(-c3ccc(C)cc3)c(N)c2C(N)=O)cc1 [Example 44] = 0.1 to 1 µM
7) COc1ccccc1C(=O)NCc1ccc(-c2nn(C3C[C@@H]4C[C@@H]4C3)c(N)c2C(N)=O)cc1 (stereo partly shown) [Example 4] = 0.1 to 1 µM

###

target: Recombinant BTK^C481S kinase (Homo sapiens, UniProt Q06187, C481S); experiment: BTK C481S binding affinity (LanthaScreen TR-FRET); settings: Kinase Tracer 236, 5 h incubation
Sequence (Q06187 whole entry C481S): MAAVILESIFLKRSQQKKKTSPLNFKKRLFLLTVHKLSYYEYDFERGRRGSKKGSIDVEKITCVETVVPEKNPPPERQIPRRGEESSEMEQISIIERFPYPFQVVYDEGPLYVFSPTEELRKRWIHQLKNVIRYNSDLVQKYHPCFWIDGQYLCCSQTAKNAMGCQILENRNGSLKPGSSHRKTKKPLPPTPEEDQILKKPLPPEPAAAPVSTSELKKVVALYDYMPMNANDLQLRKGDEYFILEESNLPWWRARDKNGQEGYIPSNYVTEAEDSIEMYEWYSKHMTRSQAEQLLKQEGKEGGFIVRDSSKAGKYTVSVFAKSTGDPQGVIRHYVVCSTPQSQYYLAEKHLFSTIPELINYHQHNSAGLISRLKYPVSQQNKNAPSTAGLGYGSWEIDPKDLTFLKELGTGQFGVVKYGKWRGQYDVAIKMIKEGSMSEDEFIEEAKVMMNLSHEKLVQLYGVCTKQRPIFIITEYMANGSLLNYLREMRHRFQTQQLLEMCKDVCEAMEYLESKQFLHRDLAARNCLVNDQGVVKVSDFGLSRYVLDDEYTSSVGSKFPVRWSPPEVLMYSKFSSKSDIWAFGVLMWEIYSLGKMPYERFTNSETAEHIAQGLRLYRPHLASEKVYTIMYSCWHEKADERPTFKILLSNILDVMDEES
IC50 for assorted compounds
quantityMeasured: IC50

1. COc1ccccc1C(=O)NCc1ccc(-c2nn(C3CCCC3F)c(N)c2C(N)=O)cc1 (centres unmarked) [Example 103] = < 10 nM
2. COc1ccccc1C(=O)NCc1ccc(-c2nn(C3CNCC3(F)F)c(N)c2C(N)=O)cc1F (centres unmarked) [Example 160] = < 10 nM
3. COc1ccccc1C(=O)NC(C)c1ccc(-c2nn(C3CCCC3)c(N)c2C(N)=O)cc1 (centres unmarked) [Example 79] = 100 to 1000 nM
4. COc1ccccc1C(=O)NCc1ccc(-c2nn(CC3(C)COC3)c(N)c2C(N)=O)cc1 [Example 8] = 10 to 100 nM
5. COc1ccc(F)cc1C(=O)NCc1ccc(-c2nn(C(C3CCCCC3)C(F)(F)F)c(N)c2C(N)=O)cc1 (centres unmarked) [Example 192] = 10 to 100 nM
6. COc1ccccc1C(=O)NCc1ccc(-c2nn(C3CCOCC3)c(N)c2C(N)=O)c(F)c1F [Example 141] = < 10 nM
7. COc1ccccc1C(=O)NCc1ccc(-c2nn(C(C)c3cccnc3)c(N)c2C(N)=O)cc1 (centres unmarked) [Example 145] = 10 to 100 nM
8. COc1ccccc1C(=O)NCc1ccc(-c2nn(C3CCCCC3)c(N)c2C(N)=O)cc1 [Example 18] = < 10 nM

###

biological target: Recombinant BTK^WT kinase (Homo sapiens, UniProt Q06187); test: BTK WT binding affinity (LanthaScreen TR-FRET); details: Kinase Tracer 236, 5 h incubation
Sequence (Q06187 whole entry): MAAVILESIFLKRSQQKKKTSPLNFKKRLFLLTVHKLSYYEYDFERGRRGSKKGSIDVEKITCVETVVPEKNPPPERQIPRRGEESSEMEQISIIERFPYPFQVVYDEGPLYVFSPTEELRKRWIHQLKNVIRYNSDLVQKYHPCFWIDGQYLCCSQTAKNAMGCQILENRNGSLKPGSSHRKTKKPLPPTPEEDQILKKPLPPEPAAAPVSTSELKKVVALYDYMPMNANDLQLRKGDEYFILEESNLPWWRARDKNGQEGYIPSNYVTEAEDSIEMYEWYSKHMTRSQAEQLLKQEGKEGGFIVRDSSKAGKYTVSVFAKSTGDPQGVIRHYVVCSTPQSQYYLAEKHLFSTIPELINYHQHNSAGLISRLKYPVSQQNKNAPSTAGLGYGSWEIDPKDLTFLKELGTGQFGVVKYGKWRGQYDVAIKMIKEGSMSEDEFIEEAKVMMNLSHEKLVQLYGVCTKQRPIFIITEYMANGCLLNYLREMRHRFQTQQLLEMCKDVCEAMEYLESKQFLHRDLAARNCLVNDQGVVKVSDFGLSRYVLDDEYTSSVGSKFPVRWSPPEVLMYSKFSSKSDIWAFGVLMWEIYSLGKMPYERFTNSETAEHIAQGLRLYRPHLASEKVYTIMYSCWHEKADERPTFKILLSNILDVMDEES
pIC50: −log10 of the molar value.
molecules and their reported pIC50
quantityMeasured: pIC50

1) COc1ccc(F)cc1C(=O)NCc1ccc(-c2nn(C(CCO)C(F)F)c(N)c2C(N)=O)cc1 (stereo not shown) [Example 193] = 7.00 to 8.00
2) COc1ccc(F)cc1C(=O)NCc1ccc(-c2nn(C3(C(F)(F)F)CCOCC3)c(N)c2C(N)=O)cc1 [Example 190] = 6.00 to 7.00
3) COc1ccc(F)cc1C(=O)NCc1ccc(-c2nn(C3CCCOC3)c(N)c2C(N)=O)cc1 (stereo not shown) [Example 113] = > 8.00
4) COc1ccc(F)cc1C(=O)NCc1ccc(-c2nn(C3CCCOC3)c(N)c2C(N)=O)c(F)c1 (stereo not shown) [Example 107] = > 8.00

###

biological target: Recombinant EGFR (Homo sapiens); assay: EGFR binding affinity (LanthaScreen TR-FRET); settings: Kinase Tracer 199, 5 h incubation
The following compounds are listed with their measured IC50 values.
quantityMeasured: IC50

1. COc1ccc(F)cc1C(=O)NCc1ccc(-c2nn(C(C(C)C)C(F)(F)F)c(N)c2C(N)=O)cc1 (stereo not shown) = 1000 to 10000 nM
2. COc1ccccc1C(=O)NCc1ccc(-c2nn(-c3cccc(F)c3)c(N)c2C(N)=O)cc1 = 100 to 1000 nM
3. COc1ccccc1C(=O)NCc1ccc(-c2nn(C3CCC(O)CC3)c(N)c2C(N)=O)cc1 (single isomer, unassigned) [Example 34b] = 1000 to 10000 nM
4. COc1ccccc1C(=O)NCc1ccc(-c2nn([C@H]3CCOC3)c(C(F)F)c2C(N)=O)cc1 = > 10000 nM
5. COc1ccc(F)cc1C(=O)NCc1ccc(-c2nn(C3CCCC3)c(N)c2C(N)=O)cc1 = 100 to 1000 nM
6. COc1ccc(F)cc1C(=O)NCc1ccc(-c2nn(CC(F)(F)F)c(N)c2C(N)=O)cc1F = 1000 to 10000 nM
7. COc1ccccc1C(=O)NCc1ccc(-c2nn(C3CNCC3(F)F)c(N)c2C(N)=O)cc1 (stereo not shown) = 100 to 1000 nM

###

Property: pIC50; scope: individual molecules
Target: Recombinant BTK^C481S kinase (Homo sapiens, UniProt Q06187, C481S)
Experiment: BTK C481S binding affinity (LanthaScreen TR-FRET)
Conditions: Kinase Tracer 236, 5 h incubation
Description: BTK^C481S binding affinity of each compound tested was determined using a time-resolved fluorescence resonance energy transfer (TR-FRET) methodology. 5 nM Recombinant BTK^WT kinase, varying concentrations of inhibitor, 2 nM LanthaScreen™ Eu anti-His Antibody and 30 nM Kinase Tracer 236 was incubated in 1× LanthaScreen™ Kinase Buffer A for 5 h. […] The TR-FRET signal was read on a plate reader with an excitation wavelength of 340 nm and detection wavelengths of 615 and 665 nm. […]
pIC50: −log10 of the molar value.
quantityMeasured: pIC50

1) COc1ccccc1C(=O)NCc1ccc(-c2nn(C3CCC(C)C3)c(N)c2C(N)=O)cc1 (centres unmarked) = > 8.00
2) COc1ccccc1C(=O)NCc1c(F)cc(-c2nn(C3CCOCC3)c(N)c2C(N)=O)cc1F = 7.00 to 8.00
3) COc1ccccc1C(=O)NCc1ccc(-c2nn(-c3cccc(C(F)(F)F)c3)c(N)c2C(N)=O)cc1 = > 8.00
4) COc1ccccc1C(=O)NCc1ccc(-c2nn(CC(=O)C(C)(C)C)c(N)c2C(N)=O)cc1 = 7.00 to 8.00
5) COc1ccc(F)cc1C(=O)NCc1ccc(-c2nn(C(C)C(F)(F)F)c(N)c2C(N)=O)c(F)c1F (centres unmarked) = > 8.00
6) COc1ccccc1C(=O)NCc1ccc(-c2nn(C3CC(=O)c4ccccc43)c(N)c2C(N)=O)cc1 (centres unmarked) = > 8.00
7) COc1ccc(F)cc1C(=O)NCc1ccc(-c2nn([C@@H]3CCCOC3)c(N)c2C(N)=O)cc1 = > 8.00
8) COc1ccccc1C(=O)NCC(O)c1ccc(-c2nn(C3CCCC3)c(N)c2C(N)=O)cc1C (centres unmarked) = 6.00 to 7.00

###

molecular target: Recombinant EGFR (Homo sapiens); test: EGFR binding affinity (LanthaScreen TR-FRET); conditions: Kinase Tracer 199, 5 h incubation
Quick list: IC50 per entry.
quantityMeasured: IC50

1) COc1ccc(F)cc1C(=O)NCc1ccc(-c2nn(C(C3CCOCC3)C(F)(F)F)c(N)c2C(N)=O)cc1 (centres unmarked) = > 10000 nM
2) COc1ccccc1C(=O)NCc1ccc(-c2nn(C3COC(C)(C)C3)c(N)c2C(N)=O)cc1 (centres unmarked) = 1000 to 10000 nM
3) COc1ccccc1C(=O)NCc1ccc(-c2nn(C3CCOC3)c(N)c2C(N)=O)cc1 (centres unmarked) = 1000 to 10000 nM
4) COc1ccccc1C(=O)NCc1ccc(-c2nn(C3CCCC3)c(C)c2C(N)=O)cc1 = 1000 to 10000 nM
5) COc1ccc(F)cc1C(=O)NCc1ccc(-c2nn(C3CCOC3)c(N)c2C(N)=O)c(F)c1 (centres unmarked) = 1000 to 10000 nM
6) COc1ccccc1C(=O)NCc1ccc(-c2nn(C3CCC(C)(C)CC3)c(N)c2C(N)=O)cc1 = 10 to 100 nM
7) COc1ccc(F)cc1C(=O)NCc1ccc(-c2nn(C3CCCC3)c(N)c2C(N)=O)cc1F = 100 to 1000 nM
8) COc1ccccc1C(=O)NCc1ccc(-c2nn(-c3ccccn3)c(N)c2C(N)=O)cc1 = 100 to 1000 nM

###

molecular target: Recombinant BTK^C481S kinase (Homo sapiens, UniProt Q06187, C481S); assay: BTK C481S binding affinity (LanthaScreen TR-FRET); conditions: Kinase Tracer 236, 5 h incubation
quantityMeasured: IC50

1. COc1ccccc1C(=O)NCc1ccc(-c2nn(C)c(N)c2C(N)=O)cc1 = 0.01 to 0.1 µM
2. COc1ccc(F)cc1C(=O)NCc1ccc(-c2nn([C@H]3CCOC3)c(N)c2C(N)=O)cc1 = < 0.01 µM
3. COc1ccc(F)cc1C(=O)NCc1ccc(-c2nn(C3CN(C)CC3(F)F)c(N)c2C(N)=O)cc1 (stereo not shown) = < 0.01 µM
4. COc1ccccc1C(=O)NCc1ccc(-c2nn(-c3cccc(C)c3)c(N)c2C(N)=O)cc1 = < 0.01 µM
